TEST: Determination of log P values by HPLC on reversed-phase column (formic acid method)
Type: physicochemical
CONDITIONS_USED: reversed-phase HPLC column (C 18), pH 3.4, HPLC, reversed-phase C 18, acidic range (pH 3.4), formic acid eluents, 55° C.; read-out: logP (HCOOH)
Hi! Just check whether chromatographic logP is below 1. Below gives Fulfilled, equal or above gives Not fulfilled.

structure_notation=Cc1nc(-c2cncc(F)c2)sc1C(=O)N(C)C assigned_class="Not fulfilled"
structure_notation=Cc1nc(-c2cccnc2)sc1C(=O)NCCC#N assigned_class="Not fulfilled"
structure_notation=CN(C)C(=O)c1cnc(-c2cccnc2)s1 assigned_class=Fulfilled
structure_notation=CCN(CC#N)C(=O)c1cnc(-c2cccnc2)s1 assigned_class="Not fulfilled"

Proceed to the following item.
is_below(chromatographic logP, 1) for "Cc1nc(-c2cncc(Cl)c2)sc1C(=O)N(C)CC(F)(F)F" ? Not fulfilled

----------
TEST: Determination of log P values by HPLC on reversed-phase column (formic acid method)
Type: physicochemical
CONDITIONS_USED: reversed-phase HPLC column (C 18), pH 3.4, HPLC, reversed-phase C 18, acidic range (pH 3.4), formic acid eluents, 55° C.; read-out: logP (HCOOH)
Assignment: determine reported chromatographic logP for the given compounds.
One number for each entry.

// known answers, use as guide
compound=COC(CNC(=O)c1sc(-c2cccnc2)nc1C)OC parameter_measured="chromatographic logP" meas_value=1.33
compound=Cc1nccc(CNC(=O)c2cnc(-c3cccnc3)s2)n1 parameter_measured="chromatographic logP" meas_value=0.94
compound=Cc1nc(-c2cccnc2)sc1C(=O)N[C@@H]1C[C@@H]1F parameter_measured="chromatographic logP" meas_value=1.16
compound=COC(C)(CNC(=O)c1sc(-c2cccnc2)nc1C)OC parameter_measured="chromatographic logP" meas_value=1.44
compound=Cn1nc(-c2cccnc2)cc1C(=O)NCc1ccon1 parameter_measured="chromatographic logP" meas_value=0.56
compound=Cc1nc(-c2cccnc2)sc1C(=O)NCc1nc(C2CC2)no1 parameter_measured="chromatographic logP" meas_value=1.63
compound=Cc1nc(-c2cccnc2)sc1C(=O)N(C)CC(F)(F)C(F)F parameter_measured="chromatographic logP" meas_value=1.69
compound=O=C(N[C@H]1C[C@@H]1F)c1cnc(-c2cccnc2)s1 parameter_measured="chromatographic logP" meas_value=1.14

Hi team, please reply with chromatographic logP for each item in this list.
1. COCN(Cc1ncccn1)C(=O)c1sc(-c2cccnc2)nc1C
2. CN(CC(C)(F)F)C(=O)c1cc(-c2cccnc2)nn1C

[1.28, 0.99]

Hi team, please reply with chromatographic logP for each item in this list.
1. CCOC1(NC(=O)c2cnc(-c3cccnc3)s2)CC1
2. Cc1cc(CN(C)C(=O)c2cnc(-c3cccnc3)s2)nn1C
3. Cc1nc(-c2cncc(F)c2)sc1C(=O)NCC(F)(F)F

1.31
1.26
2.15

Record chromatographic logP per entry; entries follow.
1. O=C(O)c1cnc(-c2cccnc2)s1
2. CN(Cc1ncccn1)C(=O)c1cnc(-c2cccnc2)s1
3. Cc1nc(-c2cccnc2)sc1C(=O)NCC(F)(F)Cl
4. COC(OC)C(C)NC(=O)c1sc(-c2cccnc2)nc1C (centres unmarked)
5. Cc1nc(-c2cccnc2)sc1C(=O)N(C)C(C)(C)C#N
6. O=C(NCc1cccc(Br)n1)c1cnc(-c2cccnc2)s1

1: 0.42; 2: 1.3; 3: 1.84; 4: 1.45; 5: 1.41; 6: 1.68

Hi there! I need chromatographic logP for each item below, if you can.
1. Cc1nc(-c2cccnc2)sc1C(=O)NCc1ccccn1
2. Cc1nc(-c2cccnc2)sc1C(=O)NC(C)(C)CS(C)(=O)=O

0.78
1.28

# return chromatographic logP for each item in the list
1. Cc1nc(-c2cccnc2)sc1C(=O)NCC(C)F (centres unmarked)
2. Cc1nc(-c2cccnc2)sc1C(=O)N(C)Cc1ccccn1

1: 1.34; 2: 1.19

Data provenance: patent US9428487B2
